// reported ΔTm/mod (° C.) vs RNA per item
system: complementary RNA; assay: Tm study of oligomeric compounds duplexed with complementary RNA (UV melting); assay type: binding; conditions: 1.2 μM, 150 mM NaCl, 10 mM phosphate, 0.1 mM EDTA, pH 7; referenced to unmodified DNA or to the fully modified tricyclo-DNA oligomer
Oligonucleotides are written 5' to 3', each unit as a sugar letter and its base; * is a phosphorothioate linkage, no mark a phosphodiester; rarer units and linkages stand in square brackets, end groups in braces. Plain capitals give the bases only. [6'F-TC-N] = 6'-fluorinated tricyclic nucleoside, subtype b of the publication (N: the base); d = 2'-deoxy (DNA)
Your answer should be a plain number; it is taken to be in °C.

# annotated cases, reported ΔTm/mod (° C.) vs RNA shown
>>> observed_measurement("06 (pA_{a}A_{a}C_{a}T_{a}G_{a}T_{a}C_{a}A_{a}C_{a}G_{a}; fully modified with subtype a nucleosides (not given here), 5'-phosphate, phosphodiester, as printed in the source, key not given here) [compound 06]")
0
>>> observed_measurement("16 (GCATTTTTACCG; unmodified DNA) [compound 16]")
0
>>> observed_measurement("13 (AACTGT_{d}CACG; as printed in the source, key not given here) [compound 13]")
"−4.7"
>>> observed_measurement("05 (dAdAdC[6'F-TC-T]dG[6'F-TC-T]dCdAdCdG) [compound 05]")
0
>>> observed_measurement("09 (pA_{a}A_{a}C_{a}T_{b}G_{a}T_{b}C_{a}A_{a}C_{a}G_{a}; as printed in the source, key not given here) [compound 09]")
"−0.2"
>>> observed_measurement("01 (AACTGTCACG; unmodified DNA) [compound 01]")
0

Here is another substance to look at.
Per the records, this substance ( 14 (AACT_{d}GTCACG; as printed in the source, key not given here) [compound 14] ) has ΔTm/mod (° C.) vs RNA equal to −2.5

====

// reported ΔTm/mod (° C.) vs DNA per item
test system: complementary DNA; assay: Tm study of oligomeric compounds duplexed with complementary DNA (UV melting); assay type: binding; conditions: 1.2 μM, 150 mM NaCl, 10 mM phosphate, 0.1 mM EDTA, pH 7; referenced to unmodified DNA or to the fully modified tricyclo-DNA oligomer
Oligonucleotides are written 5' to 3', each unit as a sugar letter and its base; * is a phosphorothioate linkage, no mark a phosphodiester; rarer units and linkages stand in square brackets, end groups in braces. Plain capitals give the bases only. [6'F-TC-N] = 6'-fluorinated tricyclic nucleoside, subtype b of the publication (N: the base); d = 2'-deoxy (DNA)
Your answer should be a plain number; it is taken to be in °C.

>>> observed_measurement("09 (pA_{a}A_{a}C_{a}T_{b}G_{a}T_{b}C_{a}A_{a}C_{a}G_{a}; as printed in the source, key not given here) [compound 09]")
"−1.8"
>>> observed_measurement("01 (AACTGTCACG; unmodified DNA) [compound 01]")
0
>>> observed_measurement("06 (pA_{a}A_{a}C_{a}T_{a}G_{a}T_{a}C_{a}A_{a}C_{a}G_{a}; fully modified with subtype a nucleosides (not given here), 5'-phosphate, phosphodiester, as printed in the source, key not given here) [compound 06]")
0
>>> observed_measurement("13 (AACTGT_{d}CACG; as printed in the source, key not given here) [compound 13]")
"−4.5"
>>> observed_measurement("08 (pA_{a}A_{a}C_{a}T_{b}G_{a}T_{a}C_{a}A_{a}C_{a}G_{a}; as printed in the source, key not given here) [compound 08]")
"−1.6"
>>> observed_measurement("05 (dAdAdC[6'F-TC-T]dG[6'F-TC-T]dCdAdCdG) [compound 05]")
0

Here is another substance to look at.
Measured on complementary DNA, 14 (AACT_{d}GTCACG; as printed in the source, key not given here) [compound 14] has a documented ΔTm/mod (° C.) vs DNA of −2.7

====

System: complementary RNA
Assay: Tm study of oligomeric compounds duplexed with complementary RNA (UV melting)
Type: binding
Details: 1.2 μM, 150 mM NaCl, 10 mM phosphate, 0.1 mM EDTA, pH 7; referenced to unmodified DNA or to the fully modified tricyclo-DNA oligomer
Protocol: The relative ability of a chemically-modified oligomeric compound to bind to complementary nucleic acid strands, as compared to natural oligonucleotides, is measured by obtaining the melting temperature of a hybridization complex of said chemically-modified oligomeric compound with its complementary unmodified target nucleic acid. […] Tm (also commonly referred to as binding affinity) is measured by using the UV spectrum to determine the formation and breakdown (melting) of hybridization. […]
[tcDNA] = tricyclo-DNA nucleoside; d = 2'-deoxy (DNA)
// reported ΔTm/mod (° C.) vs RNA per item

# annotated cases, reported ΔTm/mod (° C.) vs RNA shown
>>> observed_measurement("08 (pA_{a}A_{a}C_{a}T_{b}G_{a}T_{a}C_{a}A_{a}C_{a}G_{a}; as printed in the source, key not given here) [compound 08]")
"+0.3 °C"
>>> observed_measurement("10 (AACTGT_{c}CACG; as printed in the source, key not given here) [compound 10]")
"+0.9 °C"
>>> observed_measurement("SEQ ID NO. 17: GCATdTdTdTdTdACCG, 5 consecutive arabinofluoro residues (GCATTTTTACCG; listed as DNA, chemistry not fully specified)")
"+0.6 °C"

Here is another substance to look at.
Per the records, this substance ( 02 (AACTGTCACG; sugars from the 5' end d5 [tcDNA]1 d4, all phosphodiester, methylation of C not given here) [compound 02] ) has ΔTm/mod (° C.) vs RNA equal to +0.9 °C

====

test system: complementary DNA; experiment: Tm study of oligomeric compounds duplexed with complementary DNA (UV melting); type: binding; details: 1.2 μM, 150 mM NaCl, 10 mM phosphate, 0.1 mM EDTA, pH 7; referenced to unmodified DNA or to the fully modified tricyclo-DNA oligomer
// reported ΔTm/mod (° C.) vs DNA per item
Your answer should be a plain number; it is taken to be in °C.

>>> observed_measurement("07 (pA_{a}A_{a}C_{a}T_{a}G_{a}T_{b}C_{a}A_{a}C_{a}G_{a}; as printed in the source, key not given here) [compound 07]")
0

Here is another substance to look at.
Measured on complementary DNA, 16 (GCATTTTTACCG; unmodified DNA) [compound 16] has a documented ΔTm/mod (° C.) vs DNA of 0

====

Test system: complementary RNA
Assay: Tm study of oligomeric compounds duplexed with complementary RNA (UV melting)
Type: binding
Conditions: 1.2 μM, 150 mM NaCl, 10 mM phosphate, 0.1 mM EDTA, pH 7; referenced to unmodified DNA or to the fully modified tricyclo-DNA oligomer
Experimental: The relative ability of a chemically-modified oligomeric compound to bind to complementary nucleic acid strands, as compared to natural oligonucleotides, is measured by obtaining the melting temperature of a hybridization complex of said chemically-modified oligomeric compound with its complementary unmodified target nucleic acid. […] Tm (also commonly referred to as binding affinity) is measured by using the UV spectrum to determine the formation and breakdown (melting) of hybridization. […]
Oligonucleotides are written 5' to 3', each unit as a sugar letter and its base; * is a phosphorothioate linkage, no mark a phosphodiester; rarer units and linkages stand in square brackets, end groups in braces. Plain capitals give the bases only. [6'F-TC-N] = 6'-fluorinated tricyclic nucleoside, subtype b of the publication (N: the base); d = 2'-deoxy (DNA)
measured.property: ΔTm/mod (° C.) vs RNA

>>> observed_measurement("04 (dAdAdC[6'F-TC-T]dGdTdCdAdCdG) [compound 04]")
"+0.7 °C"
>>> observed_measurement("03 (dAdAdCdTdG[6'F-TC-T]dCdAdCdG) [compound 03]")
"+0.4 °C"

Here is another substance to look at.
Per the records, this substance ( 07 (pA_{a}A_{a}C_{a}T_{a}G_{a}T_{b}C_{a}A_{a}C_{a}G_{a}; as printed in the source, key not given here) [compound 07] ) has ΔTm/mod (° C.) vs RNA equal to +0.7 °C

====

test system: complementary DNA; test: Tm study of oligomeric compounds duplexed with complementary DNA (UV melting); type: binding; settings: 1.2 μM, 150 mM NaCl, 10 mM phosphate, 0.1 mM EDTA, pH 7; referenced to unmodified DNA or to the fully modified tricyclo-DNA oligomer
Oligonucleotides are written 5' to 3', each unit as a sugar letter and its base; * is a phosphorothioate linkage, no mark a phosphodiester; rarer units and linkages stand in square brackets, end groups in braces. Plain capitals give the bases only. [6'F-TC-N] = 6'-fluorinated tricyclic nucleoside, subtype b of the publication (N: the base); d = 2'-deoxy (DNA)
// reported ΔTm/mod (° C.) vs DNA per item

# annotated cases, reported ΔTm/mod (° C.) vs DNA shown
>>> observed_measurement("03 (dAdAdCdTdG[6'F-TC-T]dCdAdCdG) [compound 03]")
"+2.0 °C"
>>> observed_measurement("10 (AACTGT_{c}CACG; as printed in the source, key not given here) [compound 10]")
"+1.8 °C"

Per the records, this substance ( 04 (dAdAdC[6'F-TC-T]dGdTdCdAdCdG) [compound 04] ) has ΔTm/mod (° C.) vs DNA equal to +1.6 °C
